Study target: Hypoxia-inducible factor 1-alpha (Homo sapiens)
Method description: HIF-2a and HIF-1a reporter inhibition panel, dose response, selectivity assay for HIF-2a inhibitor project, cell-based, luminescence (AID 651581)
Condition parameters: HIF-1a, run 1
Endpoint: pIC50
Answers are plain numbers, as −log10 of the molar value.

Use the examples below as a reference point.
Structure smiles: Cc1cccc(NC(=S)NNc2ncc(C(F)(F)F)cc2Cl)c1
pIC50: 4.48
//
Structure smiles: O=C(Nc1cc(S(=O)(=O)N2CCOCC2)ccc1Cl)c1cc([N+](=O)[O-])ccc1Cl
pIC50: 4.62

Would you kindly look at the next entry?
## Task So what's the measured pIC50 for this one? "Cc1ccc(NC(=O)c2cc(N3C(=O)C=CC3=O)ccc2N2CCOCC2)cc1Cl"
## Result 4.22

The origin of these recorded values is PubChem BioAssay AID651581.
